target: T1, DAGWGNLc (SEQ ID NO: 9) peptide conjugated to bovine serum albumin (human; bovine, UniProt P02769 25-607, N-terminus acetylated; C-terminal Cys conjugated to BSA); assay: SPR, peptide-BSA immobilized (about 50 RU), antibody injected, Langmuir 1:1 fit
T1 construct: TDP-43 residues 65-71 plus an added C-terminal cysteine; also called Peptide conjugated to bovine serum albumin (BSA)
T1 sequence (P02769 25-607 limits assumed): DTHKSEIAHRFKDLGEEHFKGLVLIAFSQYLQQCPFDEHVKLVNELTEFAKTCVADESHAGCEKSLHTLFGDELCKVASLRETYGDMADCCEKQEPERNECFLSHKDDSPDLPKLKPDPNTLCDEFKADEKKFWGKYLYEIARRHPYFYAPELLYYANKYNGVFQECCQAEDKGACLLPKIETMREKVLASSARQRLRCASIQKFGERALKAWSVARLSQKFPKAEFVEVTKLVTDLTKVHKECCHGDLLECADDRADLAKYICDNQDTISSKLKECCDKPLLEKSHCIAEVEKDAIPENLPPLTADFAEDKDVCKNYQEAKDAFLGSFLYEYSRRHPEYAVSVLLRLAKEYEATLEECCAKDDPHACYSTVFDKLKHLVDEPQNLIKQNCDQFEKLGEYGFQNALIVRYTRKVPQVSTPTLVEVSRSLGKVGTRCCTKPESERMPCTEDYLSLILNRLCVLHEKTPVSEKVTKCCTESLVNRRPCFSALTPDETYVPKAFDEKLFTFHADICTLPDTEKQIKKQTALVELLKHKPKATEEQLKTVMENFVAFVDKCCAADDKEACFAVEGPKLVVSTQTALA

| binder | Kd [nM] |
| --- | --- |
| rabbit monoclonal antibody 1 (1H3-1K3) (antibody, V domains shown, Recombinant; also called Rabbit 1; clone 1) VH: QSVEESGGRLVTPGTPLTLTCTVSGFSLSRYYMTWVRQAPGKGLEYIGVIIPGGTTYYASWAKGRFTISKTSTTVDLRITSPTTEDTATYFCAGGPTGNSHFTLWGQGTLVTVS VL: VMTQTPSSKSVPVGGTVTINCQASESVYNNNHLSWYQQKSGQPPKLLIYEASKLESGVPPRFKGSGSGTQFTLTISDVVCDDAATYYCSGYKRVTTDGIAFGGGTEVVVK | 0.062 |
